Tested on: P. multocida 46572
measurement_protocol: In vivo mouse lung infection challenge model (murine efficacy), survival
Parameters: species or system CD-1 female mice
condition_context: P. multocida 46572 intranasal challenge; 20 mg/kg subcutaneous; harmonized relative to vehicle (−) and M9 (+) controls
property_name: % Survival
Record the result as a number with its unit.

CCCNC[C@]1(O)[C@H](C)OC(O[C@H]2[C@H](C)[C@@H](O[C@@H]3O[C@H](C)C[C@H](N(C)S(=O)(=O)c4nccn4C)[C@H]3Oc3ccc(F)cc3)[C@](C)(O)C[C@@H](C)CN[C@H](C)[C@@H](O)[C@](C)(O)[C@@H](CC)OC(=O)[C@@H]2C)C[C@@]1(C)OC (some centres unmarked) [Example B-107]; 82%

Q. What value of % Survival has been reported for the following molecule? CC[C@H]1OC(=O)[C@H](C)[C@@H](O[C@H]2C[C@@](C)(OC)[C@](O)(CN3CCCCC3)[C@H](C)O2)[C@H](C)[C@@H](O[C@@H]2O[C@H](C)C[C@H](N(C)S(=O)(=O)c3ccc(Cl)cc3)[C@H]2O)[C@](C)(O)C[C@@H](C)CN[C@H](C)[C@@H](O)[C@]1(C)O [Example C-4]
A. 76%
